Reported LC retention time is given for each of the following molecules.
# testDetails: RP, Agilent ZORBAX Eclipse Plus C18, 150 × 2.1 mm, 3.5 µm, 40 °C, 0.3 mL/min, estimated dead time 1.1 min; A: water + 0.1% formic acid; B: acetonitrile + 0.1% formic acid; gradient (min/%B) 0/2 1/2 2/20 16.5/98 22/98
# cond: stereoisomer not certain
measuredAttribute: LC retention time (min)

1) CCC1OC(=O)C(C)C(OC2CC(C)(OC)C(O)C(C)O2)C(C)C(OC2OC(C)CC(N(C)C)C2O)C(C)(O)CC(C)C(=O)C(C)C(O)C1(C)O (stereo not given) :: 7.85
2) COCCCOc1cc(CC(CC(N)C(O)CC(C(=O)NCC(C)(C)C(N)=O)C(C)C)C(C)C)ccc1OC (stereo not given) :: 8.2
3) CCCCC1=NC2(CCCC2)C(=O)N1Cc1ccc(-c2ccccc2-c2nn[nH]n2)cc1 :: 9.35
4) O=c1[nH]cnc2[nH]ncc12 :: 3.15
5) c1ccc([P+](Cc2ccccn2)(c2ccccc2)c2ccccc2)cc1 :: 8.34

----------
# testDetails: RP, Agilent ZORBAX Eclipse Plus C18, 150 × 2.1 mm, 3.5 µm, 40 °C, 0.3 mL/min, estimated dead time 1.1 min; A: water + 0.1% formic acid; B: acetonitrile + 0.1% formic acid; gradient (min/%B) 0/2 1/2 2/20 16.5/98 22/98
# cond: stereoisomer not certain
Decision: LC retention time >= 9 min yields 1 (yes), all other cases yield 0 (no).

1) O=C(O)c1ccc(O)cc1 :: 0 (no)
2) c1ccc2nc3ccccc3cc2c1 :: 0 (no)
3) CC(C)(c1ccc(OP(=O)(Oc2ccccc2)Oc2ccccc2)cc1)c1ccc(OP(=O)(Oc2ccccc2)Oc2ccccc2)cc1 :: 1 (yes)
4) CCCCCCCCCCCCCCCC[P+](CCCC)(CCCC)CCCC :: 1 (yes)
5) CC1(C)CCCC(C)(C)N1O :: 1 (yes)
6) CCC(CCC(C)O)COC(=O)c1ccccc1O (centres undefined) :: 1 (yes)
7) Nc1ccc(S(=O)(=O)Nc2ccccn2)cc1 :: 0 (no)
8) CNCCOC(c1ccccc1)c1ccccc1 :: 0 (no)
9) CCCCP(=O)(O)O :: 0 (no)
10) c1ccc(C[P+](c2ccccc2)(c2ccccc2)c2ccccc2)cc1 :: 0 (no)
11) Nc1nc2c(ncn2COCC(=O)O)c(=O)[nH]1 :: 0 (no)
12) O=C(O)c1c2ccccc2nc2ccccc12 :: 0 (no)
13) COC[P+](c1ccccc1)(c1ccccc1)c1ccccc1 :: 0 (no)
14) CCCCCCCCCCCCOS(=O)(=O)O :: 1 (yes)
15) CCNc1nc(NC(C)(C)C)[nH]c(=O)n1 :: 0 (no)
16) CCCSc1ccc2nc(NC(=O)OC)[nH]c2c1 :: 0 (no)
17) CC(=O)c1ccc(C(=O)O)cc1 :: 0 (no)
18) Cc1ccccc1N=C(N)N=C(N)N :: 0 (no)
19) CCCCCCCCCCC(C(=O)c1ccc(OC)cc1)[N+](C)(C)C (centres undefined) :: 1 (yes)
20) CC(C)(C)NCC(O)c1cc(O)cc(O)c1 (centres undefined) :: 0 (no)
21) CCN(C)C(=O)Oc1cccc(C(C)N(C)C)c1 (centres undefined) :: 0 (no)
22) CC(O)C(=O)N(C)c1ccccc1 (centres undefined) :: 0 (no)
23) COc1cc(Cc2cnc(N)nc2N)cc(O)c1OC :: 0 (no)
24) CC(C)c1ccc(OP(=O)(Oc2ccc(C(C)C)cc2)Oc2ccc(C(C)C)cc2)cc1 :: 1 (yes)
25) CCN1CCCC1CNC(=O)c1cc(S(N)(=O)=O)ccc1OC (centres undefined) :: 0 (no)
26) CC12C=CC(=O)C=C1CCC1C2C(=O)CC2(C)C1CCC2(O)C(=O)CO (centres undefined) :: 0 (no)
27) CN(C)[P+](On1nnc2ccccc21)(N(C)C)N(C)C :: 0 (no)
28) O=c1[nH]c(=O)c2[nH]c(=O)[nH]c2[nH]1 :: 0 (no)
29) CNCC1CCCCC1(O)c1cccc(OC)c1 (centres undefined) :: 0 (no)
30) COc1ccc2cc(C(C)C(=O)O)ccc2c1 (centres undefined) :: 1 (yes)
31) CCCC1OC2CC3C4CCC5=CC(=O)C=CC5(C)C4C(O)CC3(C)C2(C(=O)CO)O1 (centres undefined) :: 1 (yes)
32) CNC(=O)Oc1cccc2c1OC(C)(C)C2 :: 1 (yes)
33) O=C(NC1CCCCC1)NC1CCCCC1 :: 1 (yes)
34) CCCCCCCCC=CCCCCCCCC[N+](C)(C)C :: 1 (yes)
35) CNC(=O)Oc1ccccc1OC(C)C :: 1 (yes)
36) CCCCCCCCCCCCCC[P+](CCCCCC)(CCCCCC)CCCCCC :: 1 (yes)
37) COCC(=O)Nc1cc(Sc2ccccc2)ccc1N=C(NC(=O)OC)NC(=O)OC :: 1 (yes)
38) CCCCCCCCCC[N+](C)(C)CCCCCCCCCC :: 1 (yes)
39) COc1ccc(CCN(C)CCCC(C#N)(c2ccc(OC)c(OC)c2)C(C)C)cc1OC (centres undefined) :: 0 (no)
40) CCCCCCCCCCCCN :: 1 (yes)
41) O=c1cc(-c2ccccc2)oc2cc(O)cc(O)c12 :: 1 (yes)
42) c1ccc(P(=N[P+](c2ccccc2)(c2ccccc2)c2ccccc2)(c2ccccc2)c2ccccc2)cc1 :: 1 (yes)
43) CCN1CCN(C(=O)NC(C(=O)NC2C(=O)N3C(C(=O)O)=C(CSc4nnnn4C)CSC23)c2ccc(O)cc2)C(=O)C1=O (centres undefined) :: 0 (no)
44) COC(=O)Nc1cccc(N)c1C :: 0 (no)
45) O=P(O)(c1ccccc1)c1ccccc1 :: 0 (no)

----------
Each record here notes measured LC retention time.
# testDetails: RP, Agilent ZORBAX Eclipse Plus C18, 150 × 2.1 mm, 3.5 µm, 40 °C, 0.3 mL/min, estimated dead time 1.1 min; A: water + 0.1% formic acid; B: acetonitrile + 0.1% formic acid; gradient (min/%B) 0/2 1/2 2/20 16.5/98 22/98
# cond: stereoisomer not certain
measuredAttribute: LC retention time (min)

1) CC(C)(C)CC(C)(C)c1ccc(OCCOCC[N+](C)(C)Cc2ccccc2)cc1 :: 11.5
2) NC(Cc1ccc(Oc2ccc(O)cc2)cc1)C(=O)O (stereo not given) :: 5.62
3) Cc1ccc(OP(=O)(Oc2ccc(C)cc2)Oc2ccc(C)cc2)cc1 :: 15.9
4) COC(=O)C1CCC(=O)N1 (stereo not given) :: 4.58
5) CN(C)CCOC(c1ccccc1)c1ccccc1 :: 7.72
6) Cn1c(N)nc2nc[nH]c2c1=O :: 2.34
7) Cn1c(=O)[nH]c2ncn(C)c2c1=O :: 5.06
8) COc1cc(C(=O)O)cc(OC)c1O :: 5.7
9) CSCC1OC(n2cnc3c(N)ncnc32)C(O)C1O (stereo not given) :: 4.79
10) CN1CCC23CCCCC2C1Cc1ccc(O)cc13 (stereo not given) :: 5.97
11) Cc1ccc2n[nH]nc2c1 :: 7.02
12) CCCCCCCCCCCCCN1CC(C)OC(C)C1 (stereo not given) :: 10.4
13) COc1cc(C(=O)c2cnc(N)nc2N)cc(OC)c1OC :: 5.86
14) CC(C)NCC(O)COc1cccc2[nH]c3ccccc3c12 (stereo not given) :: 6.88
15) O=c1[nH]c(=O)c2ncn(C3OC(CO)C(O)C3O)c2[nH]1 (stereo not given) :: 4.35
16) Cc1cccc(Nc2ccncc2S(=O)(=O)NC(=O)NC(C)C)c1 :: 7.63
17) CC(=O)C1CCC2C3CCC4=CC(=O)CCC4(C)C3C(O)CC12C (stereo not given) :: 10.3
18) COc1cc(O)c(C(=O)c2ccccc2)cc1S(=O)(=O)O :: 7.48
19) CCCCCCCCCCCCCCCCN1C=CC=CC1 :: 13
20) Cc1ncc(CO)c(CO)c1O :: 2.11
21) O=C(c1ccc(O)cc1O)c1ccc(O)cc1O :: 8.37
22) O=C(c1ccccc1)c1ccc2n1CCC2C(=O)O (stereo not given) :: 9.5
23) CCN(CC)C(=O)C(C#N)=Cc1cc(O)c(O)c([N+](=O)[O-])c1 :: 9.38
24) CCCCC1C(=O)N(c2ccccc2)N(c2ccccc2)C1=O :: 13.1
25) CC(=C(CCO)SSC(CCO)=C(C)N(C=O)Cc1cnc(C)nc1N)N(C=O)Cc1cnc(C)nc1N :: 4.48

----------
# testDetails: RP, Agilent ZORBAX Eclipse Plus C18, 150 × 2.1 mm, 3.5 µm, 40 °C, 0.3 mL/min, estimated dead time 1.1 min; A: water + 0.1% formic acid; B: acetonitrile + 0.1% formic acid; gradient (min/%B) 0/2 1/2 2/20 16.5/98 22/98
# cond: stereoisomer not certain
Note to self: LC retention time under 6 min means criterion met, ties and anything higher get criterion not met.

1. Cc1nnc(-c2ccccc2)c(=O)n1N :: criterion not met
2. CCCCCCCCCCCCCCCCCC[N+](C)(C)Cc1ccccc1 :: criterion not met
3. c1ccc(Nc2ccc(Nc3ccccc3)cc2)cc1 :: criterion not met
4. CC(C)NCC(O)COc1cccc2[nH]ccc12 (centres undefined) :: criterion met
5. CCN(CC)C(=O)c1cccc(CO)c1 :: criterion not met
6. CCCC[P+](CCCC)(CCCC)CCCC :: criterion not met
7. CN1C2CCC1C(C(=O)O)C(OC(=O)c1ccccc1)C2 (centres undefined) :: criterion met
8. CC(C)NCC(O)COc1ccc(CCOCC2CC2)cc1 (centres undefined) :: criterion not met
9. Cn1cnc2c(=O)[nH]c(N)nc21 :: criterion met
10. C=CCC1=C(C)C(OC(=O)C2C(C=C(C)C)C2(C)C)CC1=O (centres undefined) :: criterion not met
11. NCCc1c[nH]c2ccccc12 :: criterion met
12. O=S(=O)([O-])CCCC[P+](c1ccccc1)(c1ccccc1)c1ccccc1 :: criterion not met
13. NC12CC3CC(CC(C3)C1)C2 :: criterion met
14. CC12CCC(=O)C=C1CCC1C2CCC2(C)C1CCC2(C)O (centres undefined) :: criterion not met
15. CCOc1ccc(C[P+](c2ccccc2)(c2ccccc2)c2ccccc2)cc1 :: criterion not met
16. CC(C)CC[P+](c1ccccc1)(c1ccccc1)c1ccccc1 :: criterion not met
17. CSc1nc(NC(C)C)nc(NC(C)C)n1 :: criterion not met
18. Cn1c(=O)c2[nH]cnc2n(C)c1=O :: criterion met
19. O=c1[nH]c(=S)c2[nH]cnc2[nH]1 :: criterion met
20. C#CC1(O)CCC2C3CCC4=CC(=O)CCC4C3CCC21CC (centres undefined) :: criterion not met
21. CCC1OC(=O)C(C)C(OC2CC(C)(OC)C(O)C(C)O2)C(C)C(OC2OC(C)CC(N(C)C)C2O)C(C)(O)CC(C)CN(C)C(C)C(O)C1(C)O (centres undefined) :: criterion not met
22. O=c1[nH]c(=O)c2ccccc2[nH]1 :: criterion met
23. C#CC1(O)CCC2C3CCc4cc(OC)ccc4C3CCC21C (centres undefined) :: criterion not met
24. CCCCCCCCN :: criterion not met
25. Cn1cnc2c(=O)[nH]c(=O)[nH]c21 :: criterion met
26. CC(C)NCC(O)COc1ccc(CCO)cc1 (centres undefined) :: criterion met
27. CC[P+](c1ccccc1)(c1ccccc1)c1ccccc1 :: criterion not met
28. CC(C)[P+](c1ccccc1)(c1ccccc1)c1ccccc1 :: criterion not met
29. CCCCCCCCN1CCCC1=O :: criterion not met
30. CCCCCC[N+](CCCCCC)(CCCCCC)CCCCCC :: criterion not met
31. O=P(Cc1ccccc1)(c1ccccc1)c1ccccc1 :: criterion not met
32. CC1(C)NC(=O)NC1=O :: criterion met
33. CC(C)(C)NCC(O)COc1cccc2c1CC(O)C(O)C2 (centres undefined) :: criterion met
34. O=C1CC2(CCCCC2)CO1 :: criterion not met
35. O=C(O)c1cc(O)c2c(c1)C(=O)c1cccc(O)c1C2=O :: criterion not met
36. CC(=O)OC1(C(C)=O)CCC2C3CC(C)C4=CC(=O)CCC4(C)C3CCC21C (centres undefined) :: criterion not met
37. O=P(O)(OCc1ccccc1)OCc1ccccc1 :: criterion not met
38. NC(Cc1ccc(O)cc1)C(=O)O (centres undefined) :: criterion met
39. OCCN1CCN(CCCN2c3ccccc3C=Cc3ccccc32)CC1 :: criterion not met
40. CCCCCCCCCCCCCCN(C)C :: criterion not met
41. Nc1ccn(C2CSC(C(=O)O)O2)c(=O)n1 (centres undefined) :: criterion met
42. CN1CCCC1=O :: criterion met
43. CC1(C)CC(OC(=O)CCCCCCCCC(=O)OC2CC(C)(C)NC(C)(C)C2)CC(C)(C)N1 :: criterion not met
44. COCC(O)c1ccc(OCC(O)CNC(C)C)cc1 (centres undefined) :: criterion met
45. COC1C=COC2(C)Oc3c(C)c(O)c4c(O)c(c5c(nc6cc(C)ccn65)c4c3C2=O)NC(=O)C(C)=CC=CC(C)C(O)C(C)C(O)C(C)C(OC(C)=O)C1C (centres undefined) :: criterion not met
46. Nc1cccc2[nH]c(-c3ccccc3)nc12 :: criterion met
47. N#CC(C(=O)O)=C(c1ccccc1)c1ccccc1 :: criterion not met
48. CCCc1nc(C(C)(C)O)c(C(=O)O)n1Cc1ccc(-c2ccccc2-c2nn[nH]n2)cc1 :: criterion not met
